test system: MAP3K3; conditions: concentration: 1 μM, replicates: in singlicate; n = 1;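 also: KINOMEscan kinase panel screen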
assay endpoint: %Inh (%)
# output: bare number, implied unit %

Kindly state the measured %Inh obtained for CCS(=O)c1ccc(-c2coc3ccc(-c4nnc(C)o4)cc23)cc1 (centres unmarked) with MAP3K3.
20

Item: O=C(Nc1n[nH]c2cc(-c3ccccc3F)ccc12)C1CC1
22

Okay, and CCC(=O)c1c(-c2ccccc2)c2cc(Cl)ccc2c(=O)n1Cc1cc(C(=O)NC2CC2)n(C)n1 ?
12

And CCn1c(-c2ccoc2)nc2cnccc21 ?
0

How about Cn1c(=O)c(F)c(Nc2ccc(I)cc2F)c2c(=O)n(OC[C@H](O)CO)cnc21 ?
4

* * *

Field: %Inh. Provide a value for each of the compounds that follow.
system: ERBB3; settings: concentration: 1 μM, replicates: in singlicate; n = 1
Write the number in % without appending the unit.

# query: %Inh of entry CCc1ccc(-c2ccc3c(c2)-c2nn(C)cc2S(=O)(=O)N3C)cc1
24

Item: O=C(Nc1n[nH]c2nc(-c3ccccc3)c(Cl)cc12)C1CC1
32

COc1cc2ncn(-c3cc(OCc4ccncc4)c(C(N)=O)s3)c2cc1OC , same question.
0

Entry to check: O=c1cc(N2CCOCC2)nc2n(Cc3ccc(F)c(Cl)c3)ccn12
0

Param item: COC(=O)c1c(-c2ccccc2)c2cc(Br)ccc2c(=O)n1Cc1ccc(NC(=O)CCC(=O)O)cc1
0

Now consider COc1cc(Nc2nccc(N3CCC(NC(=O)C4COc5ccccc5O4)C3)n2)cc(OC)c1OC (stereo not drawn) and answer again.
37

Note, next up: Cc1ccccc1COc1cc(-n2cnc3cc(Cl)ccc32)sc1C(N)=O
54

Repeat with Nc1nc(-c2ccccc2F)c(-c2ccnc3ccccc23)s1
0

Do the same for Nc1nc(N)c2nc(-c3ccccc3)[nH]c2n1 please
4

* * *

test system: p38-gamma; construct: gene MAPK12; conditions: concentration: 1 μM, replicates: in singlicate; n = 1
Would you please tag the item 1 (yes) when its %Inh is 3% or above, and 0 (no) when it is below?

Evaluate COc1cc(Nc2ccnc3ccc(C(F)(F)F)cc23)cc(OC)c1OC : %Inh at minimum 3%?
0 (no)

Also, CCS(=O)c1ccc(-c2coc3ccc(-c4nnc(C)o4)cc23)cc1 (stereo not shown) please.
0 (no)

Same lookup for CN1C(=O)C(Nc2cc(Cl)c(O)c(Cl)c2)=C(c2ccc(Cl)cc2)C1=O , please.
1 (yes)

Lookup Nc1nc(N)c2nc(-c3ccccc3)[nH]c2n1
0 (no)

Would you mind doing COc1cccc(C2=C(Nc3cccc(C(=O)O)c3)C(=O)NC2=O)c1 as well?
0 (no)

O=C(NCCNc1ccnc(Nc2ccc(F)cc2)n1)Nc1ccc2c(c1)OCO2 ?
1 (yes)

What about this compound? Nc1n[nH]c2ncc(-c3ccccc3)cc12
1 (yes)

Same question for CCc1nc(-c2cccc(C)c2)c(-c2ccncc2)s1 please.
1 (yes)

Another compound to look at: CCc1ccc(-c2ccc3c(c2)-c2nn(C)cc2S(=O)(=O)N3C)cc1
1 (yes)

* * *

test system: TYK2(JH2domain-pseudokinase); details: concentration: 1 μM, replicates: in singlicate; n = 1
I'd be grateful if you could share measured %Inh for these entries.
In your response, put the unit directly after the numeric value.

Any idea what its %Inh is? The compound is Nc1nc(-c2ccccc2F)c(-c2ccnc3ccccc23)s1 [GW560459]
32%

Would you mind doing COc1ccc(-c2cc3c(C)nc(N)nc3n([C@H]3CC[C@H](O)CC3)c2=O)cn1 as well?
0%

# iterate: COC(=O)c1c(-c2ccccc2)c2cc(C)ccc2c(=O)n1Cc1ccccc1
0%

Now this one: COc1ccc(-c2cc3c(C)nc(N)nc3n([C@H]3CC[C@H](OCCO)CC3)c2=O)cn1
0%

Then what about the compound COc1cc2ncn(-c3cc(OCCCc4ccccc4)c(C(N)=O)s3)c2cc1OC [GSK205189] ?
0%

And then CCn1c(-c2nonc2N)nc2ccccc21 [SB-693162/GW549034] , what is it?
25%

Input Nc1nccc2scc(-c3ccc4c(c3)CCN4C(=O)Cc3ccccc3)c12 [GSK2576924]
0%

// repeat for O=C(Nc1n[nH]c2cc(-c3ccccc3F)ccc12)C1CC1 [SB-733371] and report
0%

Next entry: Cc1cc(Nc2nc(-c3cccc(C)n3)nc3ccccc23)ccn1 [GW872411]
1%
